From: PubChem BioAssay (NCI)

- System: RPMI-8226 leukemia
- protocol_notes: NCI tumour cell line growth inhibition, 48 h
measurement_kind: TGI

INSERT INTO assay_data (compound, target, measurement_kind, test_result) VALUES
  ('OCC(O)C(O)C(O)C(O)CNCCO/N=C1/C(c2c(O)[nH]c3ccccc23)=Nc2ccccc21 (stereo not given)', 'RPMI-8226 leukemia', 'TGI', '> 50 µM'),
  ('COc1ccc(Cc2cc(OC)c(OC)c(OC)c2)cc1', 'RPMI-8226 leukemia', 'TGI', '39.1 µM'),
  ('CS(=O)(=O)O[C@H]1C(=O)N(c2cc3c4ccccc4ccc3c3ccccc23)[C@@H]1c1ccccn1', 'RPMI-8226 leukemia', 'TGI', '> 100 µM'),
  ('COc1ccc(C(OC(=O)[C@H](O[Si](C)(C)C(C)(C)C)[C@@H](NC(=O)c2ccccc2)c2ccccc2)c2ccc(OC)cc2)cc1', 'RPMI-8226 leukemia', 'TGI', '25.1 µM'),
  ('N#Cc1sc2c(c1OC(=O)c1ccc(Cl)cc1)c(=O)n(-c1ccccc1)c(=S)n2-c1ccccc1', 'RPMI-8226 leukemia', 'TGI', '45.3 µM'),
  ('COc1ccc(/C(=C/c2ccc3ccccc3c2)c2nn[nH]n2)cc1OC', 'RPMI-8226 leukemia', 'TGI', '> 100 µM'),
  ('O=C(/C=C\c1cc(Br)ccc1O)/C=C/c1cc(Br)ccc1O', 'RPMI-8226 leukemia', 'TGI', '1.4 µM'),
  ('CC1NC(C(=O)O)Cc2cc(O)c(O)cc21 (stereo not given)', 'RPMI-8226 leukemia', 'TGI', '> 100 µM'),
  ('O=C(/C=C\c1ccsc1)c1ccccc1', 'RPMI-8226 leukemia', 'TGI', '7.32 µM'),
  ('C=CCOC1CC(n2cnc3c(N)ncnc32)OC1CO (stereo not given)', 'RPMI-8226 leukemia', 'TGI', '> 100 µM');
